Origin of the recorded values: patent US6740335B1

assay.summary: Plasma pharmacokinetics in Sprague-Dawley rats after IV dose
particulars: rat, in vivo, 5 mg/kg
Counter-ions that a name gives are not always drawn.
readout: half-life (h)
Field: numeric (h). Do not append units.

Query CCC1(O)C(=O)OCc2c1cc1n(c2=O)Cc2c-1nc1cc3c(cc1c2CN1CCN(C)CC1)OCCO3 (stereo in doubt) [GI147211, dihydrochloride] yields half-life of 2.45

----------
assay.summary: Plasma pharmacokinetics in mice, routes of administration
Assay type: in vivo
particulars: mouse, plasma, 1 mg/kg IV bolus, read-out: Cmax
Where a name gives a salt, the structure may show the parent alone.
readout: Cmax (µg/mL)
Field: numeric (µg/mL). Do not append units.

Query CCC1(O)C(=O)OCc2c1cc1n(c2=O)Cc2c-1nc1cc3c(cc1c2CN1CCN(C)CC1)OCCO3 (stereo in doubt) [GI147211, dihydrochloride] yields Cmax of 0.08

----------
assay.summary: Plasma pharmacokinetics in mice, routes of administration
Type: in vivo
particulars: mouse, plasma, iv, 1 mg/kg, I.V., read-out: Vss
Counter-ions that a name gives are not always drawn.
readout: Vd

Query CCC1(O)C(=O)OCc2c1cc1n(c2=O)Cc2c-1nc1cc3c(cc1c2CN1CCN(C)CC1)OCCO3 (stereo in doubt) [GI147211, dihydrochloride] yields Vd of 17.6 L/kg

----------
assay.summary: Plasma pharmacokinetics in mice, routes of administration
Assay type: in vivo
particulars: mouse, plasma, iv, 1 mg/kg, 1 mg/kg IV bolus
Counter-ions that a name gives are not always drawn.
readout: clearance (mL/min/kg)
Field: numeric (mL/min/kg). Do not append units.

Query CCC1(O)C(=O)OCc2c1cc1n(c2=O)Cc2c-1nc1cc3c(cc1c2CN1CCN(C)CC1)OCCO3 (stereo in doubt) [GI147211, dihydrochloride] yields clearance of 122

----------
assay.summary: Plasma pharmacokinetics in mice, routes of administration
Assay type: in vivo
particulars: mouse, plasma, iv, 1 mg/kg, I.V.
Counter-ions that a name gives are not always drawn.
readout: Tmax

Query CCC1(O)C(=O)OCc2c1cc1n(c2=O)Cc2c-1nc1cc3c(cc1c2CN1CCN(C)CC1)OCCO3 (stereo in doubt) [GI147211, dihydrochloride] yields Tmax of 0 h

----------
assay.summary: Plasma pharmacokinetics in mice, routes of administration
Format: in vivo
particulars: mouse, plasma, 1 mg/kg IV bolus, read-out: t½ (converted)
Where a name gives a salt, the structure may show the parent alone.
readout: half-life (h)
Field: numeric (h). Do not append units.

Query CCC1(O)C(=O)OCc2c1cc1n(c2=O)Cc2c-1nc1cc3c(cc1c2CN1CCN(C)CC1)OCCO3 (stereo in doubt) [GI147211, dihydrochloride] yields half-life of 1.89

----------
assay.summary: Plasma pharmacokinetics in Sprague-Dawley rats after IV dose
particulars: rat, in vivo, 1 mg/kg
Counter-ions that a name gives are not always drawn.
readout: clearance

Query CCC1(O)C(=O)OCc2c1cc1n(c2=O)Cc2c-1nc1cc3c(cc1c2CN1CCN(C)CC1)OCCO3 (stereo in doubt) [GI147211, dihydrochloride] yields clearance of 123 mL/min/kg

----------
assay.summary: Plasma pharmacokinetics in mice, routes of administration
Assay type: in vivo
particulars: mouse, plasma, ip, 1 mg/kg, I.P., read-out: Cmax
Counter-ions that a name gives are not always drawn.
readout: Cmax (ng/mL)
Field: numeric (ng/mL). Do not append units.

Query CCC1(O)C(=O)OCc2c1cc1n(c2=O)Cc2c-1nc1cc3c(cc1c2CN1CCN(C)CC1)OCCO3 (stereo in doubt) [GI147211, dihydrochloride] yields Cmax of 56
